# TARGET OR TEST SYSTEM: human SPPL2a (Homo sapiens)
# Sequence (Q8TCT8 26-520): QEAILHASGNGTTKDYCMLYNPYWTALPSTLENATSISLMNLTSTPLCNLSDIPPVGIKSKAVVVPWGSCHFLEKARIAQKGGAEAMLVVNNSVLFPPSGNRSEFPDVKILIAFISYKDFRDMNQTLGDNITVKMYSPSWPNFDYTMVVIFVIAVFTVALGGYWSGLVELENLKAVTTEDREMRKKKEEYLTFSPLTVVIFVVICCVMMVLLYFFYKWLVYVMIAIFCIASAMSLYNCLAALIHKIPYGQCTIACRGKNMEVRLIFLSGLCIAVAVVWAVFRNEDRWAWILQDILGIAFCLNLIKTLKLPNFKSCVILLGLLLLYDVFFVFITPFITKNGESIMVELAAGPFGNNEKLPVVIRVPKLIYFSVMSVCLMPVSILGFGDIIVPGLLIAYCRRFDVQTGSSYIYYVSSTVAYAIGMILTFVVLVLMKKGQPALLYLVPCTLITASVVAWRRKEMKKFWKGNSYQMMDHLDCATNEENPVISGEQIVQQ
# TEST DETAILS: Sppl2a RGA (reporter gene assay) in HEK293 cells
# Assay type: cell-based
# Parameters: expressed in transfected cells; host or cells: HEK293 (transient)
# EXPERIMENTAL SETUP: NT-TNF-VP16-Gal4 substrate, Gal4-luciferase reporter, 24 h
READOUT: IC50 (nM)
State the answer as a number, implicitly in nM.

>>> endpoint_result("CC[C@H](CNC(=O)c1sc(-c2ccc(C(F)(F)F)nc2)nc1Cl)C(=O)N[C@@H]1C(=O)N2CCCN2Cc2ccccc21 [Example 15]")
8

C[C@H](CC(=O)Nc1cc(-c2ccccn2)nn1C)C(=O)N[C@@H]1C(=O)N2CCCN2Cc2ccccc21 [Example 94] yielded IC50 of 34

# IC50 of Cc1cnoc1C(=O)NC[C@H](C(=O)N[C@@H]1C(=O)N2CCCN2C(=O)c2ccccc21)C(F)(F)F [Example 2] = 180

----------
Below, each of the molecules is paired with its reported pIC50 value.
# TARGET OR TEST SYSTEM: human SPPL2a (Homo sapiens, UniProt Q8TCT8)
# Sequence (Q8TCT8 26-520): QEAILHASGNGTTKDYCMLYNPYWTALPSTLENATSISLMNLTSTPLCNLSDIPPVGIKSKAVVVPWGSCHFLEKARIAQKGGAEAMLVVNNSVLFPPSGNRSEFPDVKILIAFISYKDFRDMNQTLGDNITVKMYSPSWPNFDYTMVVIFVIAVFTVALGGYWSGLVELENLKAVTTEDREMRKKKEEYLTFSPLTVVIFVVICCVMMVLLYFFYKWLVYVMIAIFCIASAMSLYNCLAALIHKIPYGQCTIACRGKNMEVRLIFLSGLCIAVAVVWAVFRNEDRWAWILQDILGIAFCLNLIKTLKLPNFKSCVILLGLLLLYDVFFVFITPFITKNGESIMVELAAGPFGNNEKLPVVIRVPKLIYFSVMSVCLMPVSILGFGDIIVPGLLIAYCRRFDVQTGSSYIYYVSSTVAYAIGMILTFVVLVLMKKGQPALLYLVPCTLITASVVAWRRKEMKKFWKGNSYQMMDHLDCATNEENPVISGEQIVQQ
# TEST DETAILS: Sppl2a TL (translocation) imaging assay in U-2 OS cells
# Format: cell-based
# Design: expressed in transfected cells
# EXPERIMENTAL SETUP: U-2 OS cells expressing human SPPL2a and EGFP-TNFα(aa1-76) NTF substrate; 24 h
# Procedure: SPPL2a, TL in U-2 OS Cells. Stable U-2 OS cell lines expressing human SPPL2a constitutively and a EGFP-labeled TNFα(aa1-76) NTF substrate under a doxycycline-regulated promoter were used for the imaging assays. […] The plates were imaged using a Cellomics ArrayScan VTI HCS reader with 10×/0.3NA objective (Thermo Fisher Scientific, USA). […] Percent inhibition was calculated relative to the positive (0.5 μM LY-411,575=100% inhibition) and negative (DMSO=0% inhibition) controls. […]
pIC50 field: float, defined as -log10 of concentration (mol/L).

>>> endpoint_result("Cc1nc(C2=CCOCC2)sc1C(=O)NC[C@H](C(=O)N[C@@H]1C(=O)N2CCCN2Cc2ccccc21)C(F)(F)F [Example 44]")
7.17

Recorded result, COCCn1cc(-c2nc(Cl)c(NC(=O)C[C@@H](C)C(=O)N[C@@H]3C(=O)N4CCCN4Cc4ccccc43)s2)cn1 [Example 99] , pIC50: 7.85

Entry Cn1nc(-c2cc(C3CC3)no2)cc1NC(=O)C[C@H](C(=O)N[C@@H]1C(=O)N2CC3(CC3)CN2C(=O)c2ccccc21)C1CC1 [Example 103] — recorded pIC50 = 7.77
